- test.name: Carotenoid content in fish flesh of king salmon by HPLC
- Format: in vivo, Oncorhynchus tshawytscha
- assay.setup: Fermented product division, king salmon fish flesh, 3 months
Listed next: entries and their corresponding Ratio to astaxanthin.

compound: CC1=C(/C=C/C(C)=C/C=C/C(C)=C/C=C/C=C(C)/C=C/C=C(C)/C=C/C2=C(C)C(=O)[C@@H](O)CC2(C)C)C(C)(C)C[C@H](O)C1 [Adonixanthin]
unit.name: %
Ratio to astaxanthin: 6.5
--
compound: CC1=C(/C=C/C(C)=C/C=C/C(C)=C/C=C/C=C(C)/C=C/C=C(C)/C=C/C2=C(C)C(=O)[C@@H](O)CC2(C)C)C(C)(C)C[C@H](O)C1=O [Astaxanthin]
unit.name: %
Ratio to astaxanthin: 100
--
compound: CC1=C(/C=C/C(C)=C/C=C/C(C)=C/C=C/C=C(C)/C=C/C=C(C)/C=C/C2=C(C)C(=O)CCC2(C)C)C(C)(C)CCC1=O [Canthaxanthin]
unit.name: %
Ratio to astaxanthin: 6.5
--
compound: CC1=C(/C=C/C(C)=C/C=C/C(C)=C/C=C/C=C(C)/C=C/C=C(C)/C=C/C2=C(C)C(=O)[C@@H](O)CC2(C)C)C(C)(C)CCC1=O [Phoenicoxanthin]
unit.name: %
Ratio to astaxanthin: 45.7

----------
- test.name: Carotenoid content in fish flesh of silver salmon by HPLC
- Format: in vivo, Oncorhynchus kisutch
- assay.setup: Synthetic product division, silver salmon, 6 months, average of 10 fish

molecule: CC1=C(/C=C/C(C)=C/C=C/C(C)=C/C=C/C=C(C)/C=C/C=C(C)/C=C/C2=C(C)C(=O)CCC2(C)C)C(C)(C)CCC1
Content in fish flesh: 0.02 or less mg/kg

molecule: CC1=C(/C=C/C(C)=C/C=C/C(C)=C/C=C/C=C(C)/C=C/C=C(C)/C=C/C2=C(C)C(=O)CCC2(C)C)C(C)(C)CCC1=O
Content in fish flesh: 0.02 or less mg/kg

molecule: CC1=C(/C=C/C(C)=C/C=C/C(C)=C/C=C/C=C(C)/C=C/C=C(C)/C=C/C2=C(C)CCCC2(C)C)C(C)(C)CCC1
Content in fish flesh: 0.02 or less mg/kg

molecule: CC1=C(/C=C/C(C)=C/C=C/C(C)=C/C=C/C=C(C)/C=C/C=C(C)/C=C/C2=C(C)C(=O)[C@@H](O)CC2(C)C)C(C)(C)CCC1 [3-hydroxyequinenone]
Content in fish flesh: 0.02 or less mg/kg

molecule: CC1=C(/C=C/C(C)=C/C=C/C(C)=C/C=C/C=C(C)/C=C/C=C(C)/C=C/C2=C(C)C(=O)[C@@H](O)CC2(C)C)C(C)(C)C[C@H](O)C1
Content in fish flesh: 0.02 or less mg/kg

molecule: CC1=C(/C=C/C(C)=C/C=C/C(C)=C/C=C/C=C(C)/C=C/C=C(C)/C=C/C2=C(C)C(=O)[C@@H](O)CC2(C)C)C(C)(C)CCC1=O
Content in fish flesh: 0.02 or less mg/kg

----------
- test.name: Carotenoid content in fish flesh of rainbow trout by HPLC
- Assay type: in vivo, Oncorhynchus mykiss
- assay.setup: Fermented product division, rainbow trout, 3 months, average of 12 fish
Listed next: entries and their corresponding Content in fish flesh.

smiles.str: CC1=C(/C=C/C(C)=C/C=C/C(C)=C/C=C/C=C(C)/C=C/C=C(C)/C=C/C2=C(C)C(=O)[C@@H](O)CC2(C)C)C(C)(C)C[C@H](O)C1
unit.name: mg/kg
Content in fish flesh: 0.1

smiles.str: CC1=C(/C=C/C(C)=C/C=C/C(C)=C/C=C/C=C(C)/C=C/C=C(C)/C=C/C2=C(C)C(=O)CCC2(C)C)C(C)(C)CCC1=O
unit.name: mg/kg
Content in fish flesh: 0.4

----------
- test.name: Carotenoid content in fish flesh of rainbow trout by HPLC
- Type: in vivo, Oncorhynchus mykiss
- assay.setup: rainbow trout (Oncorhynchus mykiss), fish flesh, oral, 63.2 mg/kg feed, Fermented product division, rainbow trout, average of 12 fish

molecule: CC1=C(/C=C/C(C)=C/C=C/C(C)=C/C=C/C=C(C)/C=C/C=C(C)/C=C/C2=C(C)C(=O)[C@@H](O)CC2(C)C)C(C)(C)C[C@H](O)C1=O [Astaxanthin]
concentration at 3 months / ng/g: 3400

----------
- test.name: Carotenoid content in fish flesh of king salmon by HPLC
- Assay type: in vivo, Oncorhynchus tshawytscha
- assay.setup: Fermented product division, king salmon, 3 months, flesh frozen 1 month, average of 15 fish
- Protocol: In the examples, the quantification of the carotenoid colorant was performed using high performance liquid chromatography (HPLC). Two columns of Wakosil-II 5 SIL-100 φ4.6×250 mm (produced by Wako Pure Chemical Industries, Ltd.) were connected to each other. […] The colorant was appropriately diluted with the mobile phase and analyzed by HPLC. […] After being thawed, the fish flesh of the fish of each test division was analyzed in terms of the content of each carotenoid compound.

smiles.str: CC1=C(/C=C/C(C)=C/C=C/C(C)=C/C=C/C=C(C)/C=C/C=C(C)/C=C/C2=C(C)C(=O)CCC2(C)C)C(C)(C)CCC1
Content in fish flesh: 0.02 or less mg/kg
--
smiles.str: CC1=C(/C=C/C(C)=C/C=C/C(C)=C/C=C/C=C(C)/C=C/C=C(C)/C=C/C2=C(C)C(=O)CCC2(C)C)C(C)(C)CCC1=O
Content in fish flesh: 0.3 mg/kg
--
smiles.str: CC1=C(/C=C/C(C)=C/C=C/C(C)=C/C=C/C=C(C)/C=C/C=C(C)/C=C/C2=C(C)CCCC2(C)C)C(C)(C)CCC1
Content in fish flesh: 0.02 or less mg/kg

----------
- test.name: Carotenoid content in fish flesh of Atlantic salmon by HPLC
- Assay type: in vivo, Salmo salar
- assay.setup: Fermented product division, Atlantic salmon, 12 months, flesh frozen 1 month, average of 20 fish

molecule: CC1=C(/C=C/C(C)=C/C=C/C(C)=C/C=C/C=C(C)/C=C/C=C(C)/C=C/C2=C(C)C(=O)CCC2(C)C)C(C)(C)CCC1 [Equinenone]
Content in fish flesh: 0.02 or less mg/kg
//
molecule: CC1=C(/C=C/C(C)=C/C=C/C(C)=C/C=C/C=C(C)/C=C/C=C(C)/C=C/C2=C(C)CCCC2(C)C)C(C)(C)CCC1 [β-carotin]
Content in fish flesh: 0.02 or less mg/kg
//
molecule: CC1=C(/C=C/C(C)=C/C=C/C(C)=C/C=C/C=C(C)/C=C/C=C(C)/C=C/C2=C(C)C(=O)[C@@H](O)CC2(C)C)C(C)(C)CCC1 [3-hydroxyequinenone]
Content in fish flesh: 0.02 or less mg/kg

----------
Listed next: entries and their corresponding Ratio to astaxanthin.
- test.name: Carotenoid content in fish flesh of Atlantic salmon by HPLC
- Type: in vivo, Salmo salar
- assay.setup: Fermented product division, Atlantic salmon fish flesh, 12 months
measured.quantity: Ratio to astaxanthin

compound: CC1=C(/C=C/C(C)=C/C=C/C(C)=C/C=C/C=C(C)/C=C/C=C(C)/C=C/C2=C(C)C(=O)[C@@H](O)CC2(C)C)C(C)(C)CCC1 [3-hydroxyequinenone]
result.value: 0.5 or less %
//
compound: CC1=C(/C=C/C(C)=C/C=C/C(C)=C/C=C/C=C(C)/C=C/C=C(C)/C=C/C2=C(C)CCCC2(C)C)C(C)(C)CCC1
result.value: 0.5 or less %
//
compound: CC1=C(/C=C/C(C)=C/C=C/C(C)=C/C=C/C=C(C)/C=C/C=C(C)/C=C/C2=C(C)C(=O)CCC2(C)C)C(C)(C)CCC1
result.value: 0.5 or less %

----------
- test.name: Carotenoid content in fish flesh of silver salmon by HPLC
- Assay type: in vivo, Oncorhynchus kisutch
- assay.setup: Fermented product division, silver salmon fish flesh, 6 months

compound: CC1=C(/C=C/C(C)=C/C=C/C(C)=C/C=C/C=C(C)/C=C/C=C(C)/C=C/C2=C(C)C(=O)CCC2(C)C)C(C)(C)CCC1
Ratio to astaxanthin: 0.2 or less %
//
compound: CC1=C(/C=C/C(C)=C/C=C/C(C)=C/C=C/C=C(C)/C=C/C=C(C)/C=C/C2=C(C)CCCC2(C)C)C(C)(C)CCC1
Ratio to astaxanthin: 0.2 or less %
//
compound: CC1=C(/C=C/C(C)=C/C=C/C(C)=C/C=C/C=C(C)/C=C/C=C(C)/C=C/C2=C(C)C(=O)[C@@H](O)CC2(C)C)C(C)(C)CCC1 [3-hydroxyequinenone]
Ratio to astaxanthin: 0.2 or less %

----------
- test.name: Carotenoid content in fish flesh of king salmon by HPLC
- Assay type: in vivo, Oncorhynchus tshawytscha
- assay.setup: Fermented product division, king salmon fish flesh, 3 months

molecule: CC1=C(/C=C/C(C)=C/C=C/C(C)=C/C=C/C=C(C)/C=C/C=C(C)/C=C/C2=C(C)C(=O)[C@@H](O)CC2(C)C)C(C)(C)CCC1 [3-hydroxyequinenone]
Ratio to astaxanthin: 0.5 or less %
--
molecule: CC1=C(/C=C/C(C)=C/C=C/C(C)=C/C=C/C=C(C)/C=C/C=C(C)/C=C/C2=C(C)CCCC2(C)C)C(C)(C)CCC1
Ratio to astaxanthin: 0.5 or less %
--
molecule: CC1=C(/C=C/C(C)=C/C=C/C(C)=C/C=C/C=C(C)/C=C/C=C(C)/C=C/C2=C(C)C(=O)CCC2(C)C)C(C)(C)CCC1
Ratio to astaxanthin: 0.5 or less %
